Would you mind telling me the reported Tm of each entry?
B1: D39K, Q93D82 (parent)
chain: MSTAIVTNVKHFGGMGSALRLSEAGHTVACHDESFKQKDELEAFAETYPQLKPMSEQEPAELIEAVTSAYGQVDVLVSNDIFAPEFQPIDKYAVEDYRGAVEALQIRPFALVNAVASQMKKRKSGHIIFITSATPFGPWKELSTYTSARAGACTLANALSKELGEYNIPVFAIGPNYLHSEDSPYFYPTEPWKTNPEHVAHVKKVTALQRLGTQKELGELVAFLASGSCDYLTGQVFWLAGGFPMIERWPGMPE

variants of: B1; details: Rhizobium radiobacter; pH 7.7; Thermal; CD; Phosphate 5mM; structure 1PWX; whole UniProt chain shown
Response body: numeric value in °C, unit text excluded.

Record `D39K` . Reported Tm: 66.5

Record `A60Y` . Reported Tm: 64.5

Record `T154L` . Reported Tm: 58.5

Record `E61K` . Reported Tm: 68.5

Record `L111W` . Reported Tm: 57

Record `V205L` . Reported Tm: 63.5

Record `R107Q` . Reported Tm: 65

Record `Q87R` . Reported Tm: 68.5

Record `A83N` . Reported Tm: 63

Record `D230N` . Reported Tm: 62

Record `Y70F` . Reported Tm: 65.5

Record `A103Y` . Reported Tm: 60.5

Record `S68R` . Reported Tm: 66.5

Record `N157F` . Reported Tm: 64

Record `A69R` . Reported Tm: 65.5

Record `E247P` . Reported Tm: 66

Record `H198M` . Reported Tm: 55

Record `E58N` . Reported Tm: 65

Record `T134I` . Reported Tm: 63.5

Record `S2K` . Reported Tm: 66

Record `P253G` . Reported Tm: 64.5

Record `T194Q` . Reported Tm: 61

Record `G99D` . Reported Tm: 65

Record `E190L` . Reported Tm: 65.5

Record `P244A` . Reported Tm: 67

Record `E61Q` . Reported Tm: 66.5
